# ASSAY EXPLANATION: Caco-2 bidirectional permeability assay
# Assay type: in vitro ADME
# EXPERIMENTAL CONTEXT: human, pH 7.4; Caco-2, 5 μmol/L
We begin with a simple list: items and their reported efflux ratio at 2 h, 5 μmol/L.
// keep it numeric: no unit symbol after the value

Nc1cc(N2CCCCC2)nc(N)[n+]1[O-]	0.96
C[C@H]1O[C@@H](O[C@H]2[C@@H](O)C[C@H](O[C@H]3[C@@H](O)C[C@H](O[C@H]4CC[C@@]5(C)[C@H](CC[C@@H]6[C@@H]5C[C@@H](O)[C@]5(C)[C@@H](C7=CC(=O)OC7)CC[C@]65O)C4)O[C@@H]3C)O[C@@H]2C)C[C@H](O)[C@@H]1O	29.6

Then there is this compound:
For O=C(O)C[C@@H]1C(=O)O[C@H]2[C@@H]3OC(=O)c4cc(O)c(O)c(O)c4-c4c(cc(O)c(O)c4O)C(=O)OC[C@H]2O[C@@H](OC(=O)c2cc(O)c(O)c(O)c2)[C@@H]3OC(=O)c2cc(O)c(O)c3c2[C@H]1[C@H](O)C(=O)O3 , what is its reported efflux ratio at 2 h, 5 μmol/L? 0.33

---

# ASSAY EXPLANATION: Caco-2 bidirectional permeability assay
# Assay type: in vitro ADME
# EXPERIMENTAL CONTEXT: human, pH 7.4; Caco-2, 5 μmol/L
We begin with a simple list: items and their reported Papp A→B at 2 h, 5 μmol/L.
Include the unit right after the number.

O=C(O)C[C@@H]1C(=O)O[C@H]2[C@@H]3OC(=O)c4cc(O)c(O)c(O)c4-c4c(cc(O)c(O)c4O)C(=O)OC[C@H]2O[C@@H](OC(=O)c2cc(O)c(O)c(O)c2)[C@@H]3OC(=O)c2cc(O)c(O)c3c2[C@H]1[C@H](O)C(=O)O3	1.2 ×10⁻⁶ cm/s

Then there is this compound:
For Nc1cc(N2CCCCC2)nc(N)[n+]1[O-] , what is its reported Papp A→B at 2 h, 5 μmol/L? 5.94 ×10⁻⁶ cm/s

---

# ASSAY EXPLANATION: Pharmacokinetic study in rats (LC-MS/MS)
# Type: in vivo, Sprague–Dawley (SD) rats
# EXPERIMENTAL CONTEXT: male, Sprague-Dawley, plasma, iv; rat, i.v. 5 mg/kg
MEASURED METRIC: Tmax (min)
Enter your answer as a number in min; do not include the unit.

For O=C(O)C[C@@H]1C(=O)O[C@H]2[C@@H]3OC(=O)c4cc(O)c(O)c(O)c4-c4c(cc(O)c(O)c4O)C(=O)OC[C@H]2O[C@@H](OC(=O)c2cc(O)c(O)c(O)c2)[C@@H]3OC(=O)c2cc(O)c(O)c3c2[C@H]1[C@H](O)C(=O)O3 , what is its reported Tmax? 1.98

---

# ASSAY EXPLANATION: Pharmacokinetic study in rats (LC-MS/MS)
# Type: in vivo, Sprague–Dawley (SD) rats
# EXPERIMENTAL CONTEXT: male, Sprague-Dawley, plasma, iv; rat, i.v. 5 mg/kg
MEASURED METRIC: AUC(0-t) (ng·h/mL)
Enter your answer as a number in ng·h/mL; do not include the unit.

For O=C(O)C[C@@H]1C(=O)O[C@H]2[C@@H]3OC(=O)c4cc(O)c(O)c(O)c4-c4c(cc(O)c(O)c4O)C(=O)OC[C@H]2O[C@@H](OC(=O)c2cc(O)c(O)c(O)c2)[C@@H]3OC(=O)c2cc(O)c(O)c3c2[C@H]1[C@H](O)C(=O)O3 [CHLA, chebulagic acid] , what is its reported AUC(0-t)? 16300

---

# ASSAY EXPLANATION: Caco-2 bidirectional permeability assay
# Type: in vitro ADME
# EXPERIMENTAL CONTEXT: human, pH 7.4; Caco-2, 5 µmol/L, Table S3
MEASURED METRIC: Papp B→A at 2 h, 5 μmol/L
Include the unit right after the number.

For C[C@H]1O[C@@H](O[C@H]2[C@@H](O)C[C@H](O[C@H]3[C@@H](O)C[C@H](O[C@H]4CC[C@@]5(C)[C@H](CC[C@@H]6[C@@H]5C[C@@H](O)[C@]5(C)[C@@H](C7=CC(=O)OC7)CC[C@]65O)C4)O[C@@H]3C)O[C@@H]2C)C[C@H](O)[C@@H]1O , what is its reported Papp B→A at 2 h, 5 μmol/L? 20.2 ×10⁻⁶ cm/s

For Nc1cc(N2CCCCC2)nc(N)[n+]1[O-] , what is its reported Papp B→A at 2 h, 5 μmol/L? 5.71 ×10⁻⁶ cm/s

---

# ASSAY EXPLANATION: Pharmacokinetic study in rats (LC-MS/MS)
# Format: in vivo, Sprague–Dawley (SD) rats
# EXPERIMENTAL CONTEXT: male, Sprague-Dawley, plasma, po; rat, i.g. 10 mg/kg
# Description: The PK study was strictly conducted according to the National Medical Products Administration (NMPA) Good Laboratory Practice (GLP) guidelines, which was undertaken at the Animal Center of Tianjin University of Traditional Chinese Medicine. Sprague–Dawley (SD) rats were supplied by Beijing Vital River Laboratory Animal Technology Co., Ltd. (Beijing, China). […]
MEASURED METRIC: Cmax (ng/mL)
Enter your answer as a number in ng/mL; do not include the unit.

For O=C(O)C[C@@H]1C(=O)O[C@H]2[C@@H]3OC(=O)c4cc(O)c(O)c(O)c4-c4c(cc(O)c(O)c4O)C(=O)OC[C@H]2O[C@@H](OC(=O)c2cc(O)c(O)c(O)c2)[C@@H]3OC(=O)c2cc(O)c(O)c3c2[C@H]1[C@H](O)C(=O)O3 , what is its reported Cmax? 241

---

# ASSAY EXPLANATION: Caco-2 bidirectional permeability assay
# Type: in vitro ADME
# EXPERIMENTAL CONTEXT: human, pH 7.4; Caco-2, 5 µmol/L, Table S3
MEASURED METRIC: Papp A→B at 2 h, 5 μmol/L

For C[C@H]1O[C@@H](O[C@H]2[C@@H](O)C[C@H](O[C@H]3[C@@H](O)C[C@H](O[C@H]4CC[C@@]5(C)[C@H](CC[C@@H]6[C@@H]5C[C@@H](O)[C@]5(C)[C@@H](C7=CC(=O)OC7)CC[C@]65O)C4)O[C@@H]3C)O[C@@H]2C)C[C@H](O)[C@@H]1O [Digoxin] , what is its reported Papp A→B at 2 h, 5 μmol/L? 0.68 ×10⁻⁶ cm/s

---

# ASSAY EXPLANATION: Pharmacokinetic study in rats (LC-MS/MS)
# Type: in vivo, Sprague–Dawley (SD) rats
# EXPERIMENTAL CONTEXT: male, Sprague-Dawley, plasma, oral; rat, i.g. 10 mg/kg vs i.v. 5 mg/kg; read-out: oral bioavailability (F)
MEASURED METRIC: bioavailability (%)
Enter your answer as a number in %; do not include the unit.

For O=C(O)C[C@@H]1C(=O)O[C@H]2[C@@H]3OC(=O)c4cc(O)c(O)c(O)c4-c4c(cc(O)c(O)c4O)C(=O)OC[C@H]2O[C@@H](OC(=O)c2cc(O)c(O)c(O)c2)[C@@H]3OC(=O)c2cc(O)c(O)c3c2[C@H]1[C@H](O)C(=O)O3 , what is its reported bioavailability? 7.1

---

# ASSAY EXPLANATION: Caco-2 bidirectional permeability assay
# Type: in vitro ADME
# EXPERIMENTAL CONTEXT: human, pH 7.4; Caco-2, 5 μmol/L
MEASURED METRIC: Papp B→A at 2 h, 5 μmol/L (×10⁻⁶ cm/s)
Enter your answer as a number in ×10⁻⁶ cm/s; do not include the unit.

For O=C(O)C[C@@H]1C(=O)O[C@H]2[C@@H]3OC(=O)c4cc(O)c(O)c(O)c4-c4c(cc(O)c(O)c4O)C(=O)OC[C@H]2O[C@@H](OC(=O)c2cc(O)c(O)c(O)c2)[C@@H]3OC(=O)c2cc(O)c(O)c3c2[C@H]1[C@H](O)C(=O)O3 , what is its reported Papp B→A at 2 h, 5 μmol/L? 0.39

---

# ASSAY EXPLANATION: Pharmacokinetic study in rats (LC-MS/MS)
# Assay type: in vivo, Sprague–Dawley (SD) rats
# EXPERIMENTAL CONTEXT: male, Sprague-Dawley, plasma, po; rat, i.g. 10 mg/kg
MEASURED METRIC: half-life (h)
Enter your answer as a number in h; do not include the unit.

For O=C(O)C[C@@H]1C(=O)O[C@H]2[C@@H]3OC(=O)c4cc(O)c(O)c(O)c4-c4c(cc(O)c(O)c4O)C(=O)OC[C@H]2O[C@@H](OC(=O)c2cc(O)c(O)c(O)c2)[C@@H]3OC(=O)c2cc(O)c(O)c3c2[C@H]1[C@H](O)C(=O)O3 [CHLA, chebulagic acid] , what is its reported half-life? 15.2
